Read-out record for Adenosine receptor A3 (Homo sapiens): Ki
Record the value in nM, omitting the unit from your answer.

Worked cases, Ki given:
| SMILES_REPR | ASSAY_SYSTEM | Ki [nM] |
| --- | --- | --- |
| COc1cc(CCNc2nc(C#Cc3ccc(Cl)s3)nc3c2ncn3[C@H]2[C@H](O)[C@H](O)[C@@H]3C[C@@H]32)ccc1O | Adenosine receptor A3 (Homo sapiens) | 9.52 |
| Oc1ccc(CCNc2nc(C#Cc3ccccc3)nc3c2ncn3[C@H]2[C@H](O)[C@H](O)[C@@H]3C[C@@H]32)cc1O | Adenosine receptor A3 (Homo sapiens) | 48.8 |
| COc1cc(CCNc2nc(C#Cc3cccc(F)c3)nc3c2ncn3[C@H]2[C@H](O)[C@H](O)[C@@H]3C[C@@H]32)ccc1O | Adenosine receptor A3 (Homo sapiens) | 4.63 |

Next up:
Query string: May I ask what Ki has been recorded for "Cc1cccc(CCNc2nc(C#Cc3ccc(Cl)s3)nc3c2ncn3[C@H]2[C@H](O)[C@H](O)[C@@H]3C[C@@H]32)c1" ?
Result string: 106

----------
Target: Adenosine receptor A1 (Homo sapiens)
Sequence (P30542 whole entry): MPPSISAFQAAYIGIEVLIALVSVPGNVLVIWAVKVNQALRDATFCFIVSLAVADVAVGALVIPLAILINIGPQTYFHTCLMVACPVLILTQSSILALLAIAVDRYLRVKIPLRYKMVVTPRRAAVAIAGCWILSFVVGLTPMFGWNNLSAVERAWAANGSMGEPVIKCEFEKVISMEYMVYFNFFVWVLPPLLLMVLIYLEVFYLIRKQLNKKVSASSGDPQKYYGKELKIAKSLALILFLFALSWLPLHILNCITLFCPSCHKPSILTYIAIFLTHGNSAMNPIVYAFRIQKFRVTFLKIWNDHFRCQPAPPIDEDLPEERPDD
Assay: Displacement of [3H]R-PIA from recombinant human A1AR expressed in HEK293 cell membranes measured after 60 mins by liquid scintillation counting method
Recorded Ki for the following compounds
# output: bare number, implied unit nM

Below are worked cases with known answers.
| SMILES_REPR | Ki (nM) |
| --- | --- |
| COc1cc(CCNc2nc(C#Cc3ccccc3F)nc3c2ncn3[C@H]2[C@H](O)[C@H](O)[C@@H]3C[C@@H]32)ccc1O | 186 |
| COc1ccc(CCNc2nc(C#Cc3ccccc3)nc3c2ncn3[C@H]2[C@H](O)[C@H](O)[C@@H]3C[C@@H]32)cc1OC | 208 |
| COc1cc(CCNc2nc(C#Cc3ccc(F)c(F)c3)nc3c2ncn3[C@H]2[C@H](O)[C@H](O)[C@@H]3C[C@@H]32)ccc1O | 341 |

Query string: Bench note: what Ki did "O[C@@H]1[C@H](O)[C@@H]2C[C@@H]2[C@H]1n1cnc2c(NCCc3cccc(F)c3)nc(C#Cc3ccc(F)s3)nc21" show?
Result string: 2290

Query string: Another compound: "O[C@@H]1[C@H](O)[C@@H]2C[C@@H]2[C@H]1n1cnc2c(NCCc3cccc(F)c3)nc(C#Cc3ccccc3)nc21"
Result string: 2680

Query string: Request: "COc1cc(CCNc2nc(C#Cc3ccc(Cl)s3)nc3c2ncn3[C@H]2[C@H](O)[C@H](O)[C@@H]3C[C@@H]32)ccc1O"
Result string: 649

----------
Experiment: in vivo
Conditions: Wistar, rat, po, 10 mg/kg
MEASURED_ATTRIBUTE: bioavailability (%)
The response must be a number in % with no trailing unit.

Query string: May I ask what bioavailability has been recorded for "COc1cc(CCNc2nc(C#Cc3ccccc3)nc3c2ncn3[C@H]2[C@H](O)[C@H](O)[C@@H]3C[C@@H]32)ccc1O" ?
Result string: 3.5

----------
Molecular target: Adenosine receptor A2a (Homo sapiens, UniProt P29274)
Sequence (P29274 whole entry): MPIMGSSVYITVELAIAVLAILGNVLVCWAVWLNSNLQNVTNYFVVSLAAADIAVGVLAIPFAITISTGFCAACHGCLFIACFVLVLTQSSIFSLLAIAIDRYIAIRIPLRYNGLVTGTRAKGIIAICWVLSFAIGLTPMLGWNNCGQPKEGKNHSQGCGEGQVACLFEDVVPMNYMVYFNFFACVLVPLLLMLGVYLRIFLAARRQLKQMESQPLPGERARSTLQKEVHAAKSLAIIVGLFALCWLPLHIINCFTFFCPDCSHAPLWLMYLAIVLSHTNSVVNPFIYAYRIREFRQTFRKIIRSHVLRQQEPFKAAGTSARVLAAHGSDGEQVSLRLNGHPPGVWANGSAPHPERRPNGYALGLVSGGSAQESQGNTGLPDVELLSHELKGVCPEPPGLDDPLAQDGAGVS
Assay: Displacement of [3H]CGS21680 from recombinant human A2AAR expressed in HEK293 cell membranes at 10 uM measured after 60 mins by liquid scintillation counting method relative to control
Overview of reported inhibition across a group of compounds:
Write the number in % without appending the unit.

Solved cases below.
| SMILES_REPR | ASSAY_SYSTEM | UNIT_ANNOTATION | RESULT_VALUE |
| --- | --- | --- | --- |
| COc1ccc(CCNc2nc(C#Cc3ccccc3)nc3c2ncn3[C@H]2[C@H](O)[C@H](O)[C@@H]3C[C@@H]32)cc1OC | Adenosine receptor A2a (Homo sapiens, UniProt P29274) | % | 28 |
| COc1cc(CCNc2nc(C#Cc3ccc(F)c(F)c3)nc3c2ncn3[C@H]2[C@H](O)[C@H](O)[C@@H]3C[C@@H]32)ccc1O | Adenosine receptor A2a (Homo sapiens, UniProt P29274) | % | 33 |
| O[C@@H]1[C@H](O)[C@@H]2C[C@@H]2[C@H]1n1cnc2c(NCCc3cccc(F)c3)nc(C#Cc3ccc(F)s3)nc21 | Adenosine receptor A2a (Homo sapiens, UniProt P29274) | % | 48 |

Query string: Report inhibition for "COc1cc(CCNc2nc(C#Cc3cccc(F)c3)nc3c2ncn3[C@H]2[C@H](O)[C@H](O)[C@@H]3C[C@@H]32)ccc1O" please.
Result string: 51

Query string: Could you do the same for "O[C@@H]1[C@H](O)[C@@H]2C[C@@H]2[C@H]1n1cnc2c(NCCc3cccc(F)c3)nc(C#Cc3ccccc3)nc21" , please?
Result string: 27

Query string: Follow-up item: "COc1cc(CCNc2nc(I)nc3c2ncn3[C@H]2[C@H](O)[C@H](O)[C@@H]3C[C@@H]32)ccc1O"
Result string: 49

Query string: Try "Oc1ccc(CCNc2nc(C#Cc3ccccc3)nc3c2ncn3[C@H]2[C@H](O)[C@H](O)[C@@H]3C[C@@H]32)cc1" next.
Result string: 32

Query string: Let us now turn to "O[C@@H]1[C@H](O)[C@@H]2C[C@@H]2[C@H]1n1cnc2c(NCCc3ccccc3)nc(C#Cc3ccc(Cl)s3)nc21"
Result string: 46
